# System: MT-4 cells
# Assay summary: Cytotoxicity by MTT method in MT-4 cells
# Type: cell-based
Assay metric: CC50 (HIV-2 (ROD))

Worked examples follow.
compound="Br.Br.Br.Br.Br.Br.Br.Br.O.O.O.O.O.O.c1cc(CN2CCCNCCNCCCNCC2)ccc1CN1CCCNCCNCCNCCC1 [Compound N]" result=">500 µg/mL"
compound="c1ccc2c(CN3CCCNCCNCCCNCC3)ccc(CN3CCCNCCNCCCNCC3)c2c1 [E]" result="71 µg/mL"
compound="Br.Br.Br.Br.Br.Br.Br.Br.Br.Br.O.O.O.c1cc2ccc3ccc(CN4CCCNCCNCCCNCC4)nc3c2nc1CN1CCCNCCNCCCNCC1 [Compound L]" result=">200 µg/mL"

Consider the record given below.
Per the record, Br.Br.Br.Br.Br.Br.Br.Br.O.O.O.O.c1cc(CN2CCCNCCNCCCNCC2)nc(CN2CCCNCCNCCCNCC2)c1 [Compound O] has CC50 (HIV-2 (ROD)) of >500 µg/mL

----------
# Assay summary: Cytotoxicity by MTT method in MT-4 cells
# Assay type: cell-based
# Run conditions: human, CC50 (HIV-2 (ROD))
Assay metric: CC50 at 5 days

Per the record, c1cc(CN2CCCNCCNCCCNCC2)ccc1CN1CCCNCCNCCCNCC1 has CC50 at 5 days of > 500 µg/mL

----------
# Tested on: MT-4 cells
# Assay summary: Cytotoxicity by MTT method in MT-4 cells
# Type: cell-based
Assay metric: CC50 (HIV-2 (ROD))

Worked examples follow.
smi=c1ccc(-c2cc(CN3CCCNCCNCCCNCC3)cc(CN3CCCNCCNCCCNCC3)n2)cc1 target_desc="MT-4 cells" assay_metric="CC50 (HIV-2 (ROD))" result=">250 µg/mL"
smi=Br.Br.Br.Br.Br.Br.Br.Br.c1cc(CN2CCCNCCNCCCNCC2)sc1CN1CCCNCCNCCCNCC1 target_desc="MT-4 cells" assay_metric="CC50 (HIV-2 (ROD))" result=">500 µg/mL"
smi=Br.Br.Br.Br.Br.Br.Br.Br.Br.O.O.c1ncc(CN2CCCNCCNCCCNCC2)cc1CN1CCCNCCNCCCNCC1 target_desc="MT-4 cells" assay_metric="CC50 (HIV-2 (ROD))" result=">500 µg/mL"

Per the record, Br.Br.Br.Br.Br.Br.Br.Br.O.O.O.O.c1cc(CN2CCCNCCNCCCNCC2)cc(-c2cccc(CN3CCCNCCNCCCNCC3)c2)c1 has CC50 (HIV-2 (ROD)) of >200 µg/mL

----------
Recorded CC50 at 5 days values for a group of molecules are listed next.
# Assay summary: Cytotoxicity by MTT method in MT-4 cells
# Type: cell-based
# Run conditions: human, MT-4 cells, 5 days, MTT; HIV-1 part of table; read-out: CC50 (HIV-1 (IIIB))
Write it as a number; the unit µg/mL goes unstated.

smi=Clc1cc(CN2CCCNCCNCCCNCC2)c(Cl)cc1CN1CCCNCCNCCCNCC1 assay_metric="CC50 at 5 days" unit_info=µg/mL quantitative_result=71.9

Consider the record given below.
Per the record, O=[N+]([O-])c1cc(CN2CCCNCCNCCCNCC2)cc(CN2CCCNCCNCCCNCC2)c1 has CC50 at 5 days of 55

----------
# System: MT-4 cells
# Assay summary: Cytotoxicity by MTT method in MT-4 cells
# Assay type: cell-based
Recorded CC50 (HIV-1 (IIIB)) values for a group of compounds are listed next.

Worked examples follow.
compound="Cc1cn([C@H]2C[C@H](N=[N+]=[N-])[C@@H](CO)O2)c(=O)[nH]c1=O [AZT, reference compound]" assay_metric="CC50 (HIV-1 (IIIB))" result=">1 µg/mL"
compound="Br.Br.Br.Br.Br.Br.Br.Br.Br.O.O.c1ncc(CN2CCCNCCNCCCNCC2)cc1CN1CCCNCCNCCCNCC1 [Compound P]" assay_metric="CC50 (HIV-1 (IIIB))" result=">500 µg/mL"
compound="Br.Br.Br.Br.Br.Br.Br.Br.O.O.O.O.c1cc(CN2CCCNCCNCCCNCC2)cc(-c2cccc(CN3CCCNCCNCCCNCC3)c2)c1 [Compound J]" assay_metric="CC50 (HIV-1 (IIIB))" result=">200 µg/mL"
compound="Br.Br.Br.Br.Br.Br.Br.Br.O.O.O.O.O.O.c1cc(CN2CCCNCCNCCCNCC2)ccc1CN1CCCNCCNCCNCCC1 [Compound N]" assay_metric="CC50 (HIV-1 (IIIB))" result=">500 µg/mL"

Consider the record given below.
Per the record, c1ccc2c(CN3CCCNCCNCCCNCC3)ccc(CN3CCCNCCNCCCNCC3)c2c1 [E] has CC50 (HIV-1 (IIIB)) of 71 µg/mL

----------
# Assay summary: Cytotoxicity by MTT method in MT-4 cells
# Format: cell-based
# Run conditions: human, MT-4 cells, 5 days, MTT; HIV-2 part of table; read-out: CC50 (HIV-2 (ROD))
Recorded CC50 at 5 days values for a group of compounds are listed next.
Write it as a number; the unit µg/mL goes unstated.

compound="Clc1cc(CN2CCCNCCNCCCNCC2)c(Cl)cc1CN1CCCNCCNCCCNCC1 [X]" unit_info=µg/mL quantitative_result=72.7

Per the record, O=[N+]([O-])c1cc(CN2CCCNCCNCCCNCC2)cc(CN2CCCNCCNCCCNCC2)c1 [Compound C] has CC50 at 5 days of 55

----------
# System: HIV-1 (HTLV-IIIB)
# Assay summary: microbe, parasite or virus in culture
# Assay type: cell-based
# Run conditions: Human immunodeficiency virus 1, IIIB, MT4, 120 h; MT-4 cells, 100 CCID50, 5 days, MTT; read-out: IC50 HIV-1 (IIIB)
met if IC50 is below 0.008 µg/mL. not met if not; exact matches included in not met.

Reference set (3 entries):
molecule="c1cc(CN2CCCNCCNCCCNCC2)cc(CN2CCCNCCNCCCNCC2)c1 [A]" classification="not met"
molecule="c1cc(CN2CCCNCCNCCCNCC2)ccc1CN1CCCNCCNCCCNCC1 [Compound B]" classification=met
molecule="Cc1cc(CN2CCCNCCNCCCNCC2)c(C)cc1CN1CCCNCCNCCCNCC1 [W]" classification=met

**Query** State whether 0.008 µg/mL exceeds IC50 recorded for Brc1cc(CN2CCCNCCNCCCNCC2)ccc1CN1CCCNCCNCCCNCC1 [Y] .
**Result** met

**Query** State whether 0.008 µg/mL exceeds IC50 recorded for Clc1cc(CN2CCCNCCNCCCNCC2)c(Cl)cc1CN1CCCNCCNCCCNCC1 [X] .
**Result** not met

**Query** State whether 0.008 µg/mL exceeds IC50 recorded for O=[N+]([O-])c1cc(CN2CCCNCCNCCCNCC2)cc(CN2CCCNCCNCCCNCC2)c1 [Compound C] .
**Result** not met

----------
Recorded CC50 (HIV-1 (IIIB)) values for a group of compounds are listed next.
# System: MT-4 cells
# Assay summary: Cytotoxicity by MTT method in MT-4 cells
# Type: cell-based

Worked examples follow.
smi=Br.Br.Br.Br.Br.Br.Br.Br.Br.Br.O.O.O.c1cc2ccc3ccc(CN4CCCNCCNCCCNCC4)nc3c2nc1CN1CCCNCCNCCCNCC1 target_desc="MT-4 cells" result=">200 µg/mL"
smi=Br.Br.Br.Br.Br.Br.Br.Br.O.O.O.O.c1cc(CN2CCCNCCNCCCNCC2)nc(CN2CCCNCCNCCCNCC2)c1 target_desc="MT-4 cells" result=">500 µg/mL"
smi=c1ccc(-c2cc(CN3CCCNCCNCCCNCC3)cc(CN3CCCNCCNCCCNCC3)n2)cc1 target_desc="MT-4 cells" result=">250 µg/mL"

Per the record, Br.Br.Br.Br.Br.Br.Br.Br.c1cc(CN2CCCNCCNCCCNCC2)sc1CN1CCCNCCNCCCNCC1 has CC50 (HIV-1 (IIIB)) of >500 µg/mL

----------
# Assay summary: Cytotoxicity by MTT method in MT-4 cells
# Format: cell-based
# Run conditions: human, MT-4 cells, 5 days, MTT; HIV-1 part of table; read-out: CC50 (HIV-1 (IIIB))
Assay metric: CC50 at 5 days

Worked examples follow.
compound="Cc1cc(CN2CCCNCCNCCCNCC2)c(C)cc1CN1CCCNCCNCCCNCC1 [W]" result="> 250 µg/mL"
compound="Brc1cc(CN2CCCNCCNCCCNCC2)ccc1CN1CCCNCCNCCCNCC1 [Y]" result="> 250 µg/mL"

Consider the record given below.
Per the record, c1cc(CN2CCCNCCNCCCNCC2)cc(CN2CCCNCCNCCCNCC2)c1 [A] has CC50 at 5 days of > 500 µg/mL

----------
# Assay summary: Cytotoxicity by MTT method in MT-4 cells
# Assay type: cell-based
# Run conditions: human, MT-4 cells, 5 days, MTT; HIV-2 part of table; read-out: CC50 (HIV-2 (ROD))
Assay metric: CC50 at 5 days

Worked examples follow.
molecule="Cc1cc(CN2CCCNCCNCCCNCC2)c(C)cc1CN1CCCNCCNCCCNCC1 [W]" assay_metric="CC50 at 5 days" result="> 250 µg/mL"
molecule="c1cc(CN2CCCNCCNCCCNCC2)cc(CN2CCCNCCNCCCNCC2)c1 [A]" assay_metric="CC50 at 5 days" result="> 500 µg/mL"

Consider the record given below.
Per the record, Brc1cc(CN2CCCNCCNCCCNCC2)ccc1CN1CCCNCCNCCCNCC1 [Y] has CC50 at 5 days of > 250 µg/mL
